tested-system: human ether-à-go-go-related gene (hERG) potassium channel (human);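 further: peak tail current of the secondary pulse compared with the same well before compound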
Sequence (Q12809 whole entry, looked up): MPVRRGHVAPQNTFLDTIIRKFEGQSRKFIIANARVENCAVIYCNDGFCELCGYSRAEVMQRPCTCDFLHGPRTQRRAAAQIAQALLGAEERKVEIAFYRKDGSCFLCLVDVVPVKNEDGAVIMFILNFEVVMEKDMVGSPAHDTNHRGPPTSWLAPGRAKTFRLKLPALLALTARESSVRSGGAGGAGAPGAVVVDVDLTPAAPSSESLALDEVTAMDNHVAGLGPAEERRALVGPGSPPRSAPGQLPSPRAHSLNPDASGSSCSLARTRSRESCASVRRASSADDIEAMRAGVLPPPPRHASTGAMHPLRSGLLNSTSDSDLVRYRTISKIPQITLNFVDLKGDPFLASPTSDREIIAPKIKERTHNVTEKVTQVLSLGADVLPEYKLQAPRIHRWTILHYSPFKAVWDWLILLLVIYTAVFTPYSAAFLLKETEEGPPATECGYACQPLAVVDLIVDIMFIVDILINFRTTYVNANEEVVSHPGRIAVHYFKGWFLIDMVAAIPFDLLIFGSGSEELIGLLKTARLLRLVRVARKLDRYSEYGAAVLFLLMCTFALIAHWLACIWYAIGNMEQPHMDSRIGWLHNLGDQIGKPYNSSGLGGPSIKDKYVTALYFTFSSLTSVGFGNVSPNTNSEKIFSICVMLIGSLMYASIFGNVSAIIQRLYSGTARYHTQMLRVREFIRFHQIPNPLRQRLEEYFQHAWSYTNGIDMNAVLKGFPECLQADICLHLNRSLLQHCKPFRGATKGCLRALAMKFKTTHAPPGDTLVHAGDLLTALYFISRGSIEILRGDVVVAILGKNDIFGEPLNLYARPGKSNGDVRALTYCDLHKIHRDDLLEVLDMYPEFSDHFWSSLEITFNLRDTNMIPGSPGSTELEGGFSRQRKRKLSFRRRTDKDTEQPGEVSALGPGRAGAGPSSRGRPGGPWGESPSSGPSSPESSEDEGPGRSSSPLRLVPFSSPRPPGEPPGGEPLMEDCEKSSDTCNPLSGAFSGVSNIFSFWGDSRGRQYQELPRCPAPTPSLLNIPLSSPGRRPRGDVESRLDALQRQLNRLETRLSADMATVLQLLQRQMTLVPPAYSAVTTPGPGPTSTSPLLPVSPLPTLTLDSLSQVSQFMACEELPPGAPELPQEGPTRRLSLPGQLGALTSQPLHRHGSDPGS
run-description: primary screen, population patch clamp on CHO cells stably expressing hERG; higher = less effect of the substance
Hit rate of the full screen: of about 310,000 compounds, about 14,000 (4.5%) showed an effect of 50% or more. Effects have a minus sign here. The list comes from a sample in which strong results are over-represented; it also holds close analogues and randomly drawn compounds.
# hERG current change (%, negative = inhibition) at 10uM values compiled below
assay-metric: hERG current change (%, negative = inhibition) at 10uM (%)

[[record]]
compound = "C=CCOC(=O)c1ccc(-n2cncn2)nc1"
unit_of_measurement = "%"
measured_value = -4.47

[[record]]
compound = "CC(C)NS(=O)(=O)c1ccc(CCC(=O)Nc2ccc3c(c2)OCO3)cc1"
unit_of_measurement = "%"
measured_value = 1.66

[[record]]
compound = "CCOC(=O)c1c(C)n(-c2ccc(OC)cc2)c2ccc(O)c(CN(C)C)c12.Cl"
unit_of_measurement = "%"
measured_value = -74.2

[[record]]
compound = "O=C(Nc1ccc(N2CCCCCC2)cc1)c1ccc[nH]1"
unit_of_measurement = "%"
measured_value = -15.6

[[record]]
compound = "Cc1csc(NC(=O)c2ccc(C)c([N+](=O)[O-])c2)n1"
unit_of_measurement = "%"
measured_value = -41.6

[[record]]
compound = "CCN(CC)CCNC(=O)c1ccc(Sc2ccc(C)cc2)c(NC(C)=O)c1"
unit_of_measurement = "%"
measured_value = -58.2

[[record]]
compound = "Cc1cc(C)c(-c2cc(C)nc3ncnn23)c(C)c1"
unit_of_measurement = "%"
measured_value = 7.75

[[record]]
compound = "CCCCNCc1nc2ccccc2c(=O)[nH]1.Cl"
unit_of_measurement = "%"
measured_value = 5.81

[[record]]
compound = "Cc1ccccc1CN1C2=NCCN2c2ccccc21.Cl"
unit_of_measurement = "%"
measured_value = -53.7

[[record]]
compound = "Cc1cccc(C(=O)N2CCN(CCNC(=O)C(=O)Nc3ccc(F)cc3)CC2)c1"
unit_of_measurement = "%"
measured_value = -38.8

[[record]]
compound = "CC(=O)Nc1cc(C(=O)NCc2ccco2)ccc1Sc1ccc(Cl)cc1"
unit_of_measurement = "%"
measured_value = -35.6

[[record]]
compound = "COc1ccc(N2CCN(C(=O)Nc3ccccc3Cl)CC2)cc1"
unit_of_measurement = "%"
measured_value = 4.49

[[record]]
compound = "CCOC(=O)c1ccc2[nH]c3c(c2c1)CCCC3"
unit_of_measurement = "%"
measured_value = -19.2

[[record]]
compound = "CCOc1ccccc1CNC(=O)c1ccc(Sc2ccc(Cl)cc2)c(NC(C)=O)c1"
unit_of_measurement = "%"
measured_value = -19.4

[[record]]
compound = "Cc1cccnc1NC(=O)Nc1cccs1"
unit_of_measurement = "%"
measured_value = 12.4

[[record]]
compound = "O=C(NCCN1CCN(C(=O)c2c(F)cccc2F)CC1)C(=O)Nc1ccc(Cl)cc1"
unit_of_measurement = "%"
measured_value = -32.5

[[record]]
compound = "CC(=O)c1ccc(OC(=O)Cc2cccc3ccccc23)cc1"
unit_of_measurement = "%"
measured_value = 3.13

[[record]]
compound = "CCOc1ccc(CNC(=O)c2ccc(Sc3ccc(C)cc3)c(NC(C)=O)c2)cc1OC"
unit_of_measurement = "%"
measured_value = -21.5

[[record]]
compound = "CCOc1ccc(CNC(=O)c2ccc(Sc3ccc(C)cc3)c(NC(C)=O)c2)cc1"
unit_of_measurement = "%"
measured_value = -4.85

[[record]]
compound = "Cc1ccc(C(=O)N/C(N)=N/c2nc3ccccc3o2)cc1"
unit_of_measurement = "%"
measured_value = -2.82

[[record]]
compound = "COc1ccc(NC(=O)C(=O)NCCN2CCN(C(=O)c3cccc(Br)c3)CC2)cc1"
unit_of_measurement = "%"
measured_value = -31

[[record]]
compound = "CCCC12CN3CC(C)(CN(C1)C3c1ccco1)C2=O (stereo not shown)"
unit_of_measurement = "%"
measured_value = -4.64

[[record]]
compound = "COc1cc(C)c(S(=O)(=O)NOCc2ccc([N+](=O)[O-])cc2)c(C)c1C"
unit_of_measurement = "%"
measured_value = 8.43

[[record]]
compound = "CCCN1C(=O)c2cc(C(=O)NC3CCCC3)ccc2C1O (stereo not shown)"
unit_of_measurement = "%"
measured_value = -2.01

[[record]]
compound = "CCC(=O)Nc1cc(C(=O)O)ccc1Sc1ccc(C)cc1"
unit_of_measurement = "%"
measured_value = 4.85

[[record]]
compound = "CCOC(=O)c1c(C)n(-c2ccccc2)c2ccc(O)c(CN(C)C)c12.Cl"
unit_of_measurement = "%"
measured_value = -30.7

[[record]]
compound = "COC(=O)c1ccc2c(=O)n(Cc3ccc4c(c3)OCO4)c(=S)[nH]c2c1"
unit_of_measurement = "%"
measured_value = 16.3

[[record]]
compound = "CCOC(=O)c1sc(=N)n(-c2ccc(OC)cc2)c1C"
unit_of_measurement = "%"
measured_value = -4.06

[[record]]
compound = "O=C(CCOc1ccccc1)OCC(=O)c1cc2ccccc2o1"
unit_of_measurement = "%"
measured_value = -10.3

[[record]]
compound = "CCN(CC)Cc1c(O)ccc2c([N+](=O)[O-])c(C)n(-c3ccc(OC)cc3)c12"
unit_of_measurement = "%"
measured_value = -24.9

[[record]]
compound = "COc1ccc(N2CCN(c3cc(C)c4cccc(C)c4n3)CC2)cc1"
unit_of_measurement = "%"
measured_value = 22.7

[[record]]
compound = "COc1ccc(C(=O)N2CCN(CCNC(=O)C(=O)Nc3ccc(Br)cc3)CC2)cc1"
unit_of_measurement = "%"
measured_value = -80

[[record]]
compound = "CC(=O)Nc1cc(C(=O)NCCN2CCN(Cc3ccccc3)CC2)ccc1Sc1ccc(C)cc1"
unit_of_measurement = "%"
measured_value = -63.6

[[record]]
compound = "CC(=O)Nc1cc(C(=O)N(C)Cc2ccco2)ccc1Sc1ccc(Cl)cc1"
unit_of_measurement = "%"
measured_value = -66.7

[[record]]
compound = "COc1ccc(-n2c(C)c([N+](=O)[O-])c3ccc(O)c(CN(C)C)c32)cc1"
unit_of_measurement = "%"
measured_value = -57.6

[[record]]
compound = "CC(=O)Nc1cc(C(=O)NCc2ccco2)ccc1Sc1ccc(F)cc1"
unit_of_measurement = "%"
measured_value = -40.8

[[record]]
compound = "CC(=O)Nc1cc(C(=O)NCc2ccco2)ccc1Sc1ccc(C)cc1"
unit_of_measurement = "%"
measured_value = -17.8

[[record]]
compound = "CCOC(=O)c1c(C)n(C)c2ccc(O)c(CN(C)C)c12.O=C(O)C(=O)O"
unit_of_measurement = "%"
measured_value = -6.82

[[record]]
compound = "COc1ccc(C(=O)N2CCN(CCNC(=O)C(=O)Nc3ccc(F)cc3)CC2)cc1OC"
unit_of_measurement = "%"
measured_value = -61.5

[[record]]
compound = "CCN1CCN(C(=O)c2ccc(OCC(=O)Nc3ccc(F)cc3)c(OC)c2)CC1"
unit_of_measurement = "%"
measured_value = -14.9

